- Tested on: biotinyl-Trp-oxazolone
- PROTOCOL TEXT: self-aminoacylation, catalytic enhancement (BWO) (fold over background); higher = more active; k-Seq, kA / k0A0; sequences stand for … in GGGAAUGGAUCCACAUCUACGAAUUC…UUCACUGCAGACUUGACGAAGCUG
Variants at the floor of the assay were thinned out.
Classify as follows. Reported self-aminoacylation greater than or equal to 3: label 1. Reported self-aminoacylation below: label 0.

// known answers, use as guide
| RECORD SEQUENCE | ANSWER LABEL |
| --- | --- |
| CUACACUUCAAUCAAUCGGUC [Fam1B.1 aminoacylation ribozyme variant] | label 1 |
| AUUUACCUAGAUCAUCGGGUG [Fam2.2 aminoacylation ribozyme variant] | label 1 |
| CCACGCUUCAAGCAAUCAGUC [Fam1B.1 aminoacylation ribozyme variant] | label 1 |

Test whether the sequence AUUAACCUUGUCAUCGAGUGA [Fam2.1 aminoacylation ribozyme variant] records self-aminoacylation of 3 or higher.
label 1

Kindly determine if self-aminoacylation recorded for CCCCACUUGAAGCAAUCGGUC [Fam1B.1 aminoacylation ribozyme variant] is above or exactly 3.
label 0

hey, is self-aminoacylation for this one >= 3? AUUCAGCUAGGUCAUAGGGUG [Fam2.2 aminoacylation ribozyme variant]
label 0

Is the recorded value of self-aminoacylation equal to or greater than 3 for this sequence? CUACUUCAACCAUUCGGUCUG [Fam1A.1 aminoacylation ribozyme variant]
label 0

# check: self-aminoacylation of AUUCCCCUGGUCAUAGAGUGA [Fam2.1 aminoacylation ribozyme variant] is greater than or equal to 3
label 1

Can AAGAUUGAUAAUAGUCGCAAG [Fam3.1 aminoacylation ribozyme variant] be said to have self-aminoacylation at or above 3?
label 0

Confirm if self-aminoacylation reported for the sequence UUUACCCUGAUCAUCGAGUGA [Fam2.1 aminoacylation ribozyme variant] is 3 or above.
label 1

Could you please find out whether AAUCACCUAGGUCAACGGGUG [Fam2.2 aminoacylation ribozyme variant] has self-aminoacylation that meets 3 or exceeds it?
label 1

Hello, I need to know if CUUCUUCAAACAAUCGGUCUU [Fam1A.1 aminoacylation ribozyme variant] has measured self-aminoacylation not below 3. Thanks!
label 1

Please tell me: is the sequence ACACACCUAGGUCAUCGGGUG [Fam2.2 aminoacylation ribozyme variant] at or over 3 in terms of self-aminoacylation?
label 1

###

- System: biotinyl-Val-oxazolone
- PROTOCOL TEXT: self-aminoacylation, catalytic enhancement (BVO) (fold over background); higher = more active; k-Seq, kA / k0A0; sequences stand for … in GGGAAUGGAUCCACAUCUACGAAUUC…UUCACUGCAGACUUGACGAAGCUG
Fewer inactive variants are shown than the library holds.
Class membership depends on self-aminoacylation alone; the intervals are band 1: < 1; band 2: ≥ 1 and < 4; band 3: ≥ 4

Worked examples, 5 sequences total:
| RECORD SEQUENCE | ANSWER LABEL |
| --- | --- |
| CCACACUUCAAGCAUUCGGUG [Fam1B.1 aminoacylation ribozyme variant] | band 3 |
| AUUACCCUGGGCAUCGCGUGA [Fam2.1 aminoacylation ribozyme variant] | band 3 |
| AUUCCCCUGGUCACCGAGUGA [Fam2.1 aminoacylation ribozyme variant] | band 3 |
| CCACACUACAAGCAAUCGGUU [Fam1B.1 aminoacylation ribozyme variant] | band 2 |
| CUACUUCAAACAAGCUGUCUG [Fam1A.1 aminoacylation ribozyme variant] | band 1 |

Each sequence maps to one class by self-aminoacylation. Which class for AUUAGCCUGGACAUCGAGUGA [Fam2.1 aminoacylation ribozyme variant] ?
band 2

Quick check: band for CCCCACUUCAAGCAAUCGGCC [Fam1B.1 aminoacylation ribozyme variant]
band 2

GET /class?item= AUGUUUGCUAAUAGUCGCAUG [Fam3.1 aminoacylation ribozyme variant]
band 2

# bin lookup: classify AUUACACUUGUCAUCGAGUGA [Fam2.1 aminoacylation ribozyme variant] by its self-aminoacylation
band 2

Would you mind sorting CUACUUCAAACAAACGGUCUG [Fam1A.1 aminoacylation ribozyme variant] into the appropriate category?
band 1

Textbook exercise: identify the category of the sequence given here, AUUACCCGGGUUAUCGAGUGA [Fam2.1 aminoacylation ribozyme variant] , according to its measured value.
band 3

Hey, which category is AUUGACCUAGGUCGUCGGGUG [Fam2.2 aminoacylation ribozyme variant] in, do you know?
band 2

Consider AUUCUCCUAGGUCACCGGGUG [Fam2.2 aminoacylation ribozyme variant] . To which self-aminoacylation class does it belong?
band 3

For this sequence, which bin applies? AAUCACCUAGGUCAUCGGCUG [Fam2.2 aminoacylation ribozyme variant]
band 2

Into which bin does this sequence go? AGUACCCCGGUCAUCGAGUGA [Fam2.1 aminoacylation ribozyme variant]
band 2

Which band does AUUGCCCUGGUUAUCGAGUGA [Fam2.1 aminoacylation ribozyme variant] fall in?
band 3

// bin(item) where item = CUACUGCAAACUAUCGGUCUG [Fam1A.1 aminoacylation ribozyme variant]
band 2

Which bin should I file CUACUUCAAACAUUCGGUCUU [Fam1A.1 aminoacylation ribozyme variant] under?
band 2

Which class holds CAACACUUCAAGCAAUCAGUC [Fam1B.1 aminoacylation ribozyme variant] ?
band 1

Category of AUACACCUAGGUCAUCGGUUG [Fam2.2 aminoacylation ribozyme variant] :
band 2

Could you place CCACACUUCAAGCAACCGGUU [Fam1B.1 aminoacylation ribozyme variant] in its proper category? Many thanks.
band 2

###

Reported self-aminoacylation values follow for various sequences
- Tested on: biotinyl-Val-oxazolone
- PROTOCOL TEXT: self-aminoacylation, catalytic enhancement (BVO) (fold over background); higher = more active; k-Seq, kA / k0A0; sequences stand for … in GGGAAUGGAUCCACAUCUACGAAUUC…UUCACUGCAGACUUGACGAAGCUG
This sample holds only a part of the variants without activity.

Solved cases (5 shown):
| RECORD SEQUENCE | MEASURED ENDPOINT | MEASURED VALUE |
| --- | --- | --- |
| UAGUUUGCUUAUAGUCGCAAG [Fam3.1 aminoacylation ribozyme variant] | self-aminoacylation | 1.54 |
| AUUCCCCCAGGUCAUCGGGUG [Fam2.2 aminoacylation ribozyme variant] | self-aminoacylation | 11.4 |
| CCACAGUUCAGGCAAUCGGUC [Fam1B.1 aminoacylation ribozyme variant] | self-aminoacylation | 2.27 |
| CCACACGUCAAGCGAUCGGUC [Fam1B.1 aminoacylation ribozyme variant] | self-aminoacylation | 2.3 |
| CGAUUUCAAACAAUCGGUCUG [Fam1A.1 aminoacylation ribozyme variant] | self-aminoacylation | 1.66 |

Return the recorded self-aminoacylation value; entry: UUACUUCAAAGAAUCGGUCUG [Fam1A.1 aminoacylation ribozyme variant]
1.08

For the sequence CUACUUCAAACAAUCGGGGUG [Fam1A.1 aminoacylation ribozyme variant] , give its reported self-aminoacylation.
2.35

Please indicate self-aminoacylation recorded for AUUACCCUGGGCAUCCAGUGA [Fam2.1 aminoacylation ribozyme variant]
3.83

###

Consider the following sequences and their measured self-aminoacylation readings.
- System: biotinyl-Phe-oxazolone
- PROTOCOL TEXT: self-aminoacylation, catalytic enhancement (BFO) (fold over background); higher = more active; k-Seq, kA / k0A0; sequences stand for … in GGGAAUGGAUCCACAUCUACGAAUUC…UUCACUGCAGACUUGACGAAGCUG
Variants at the floor of the assay were thinned out.
Form rule: numeric answer, no unit written next to it.

Please review the following examples before continuing.
| RECORD SEQUENCE | self-aminoacylation |
| --- | --- |
| AUUACCUUAGUCAUCGAGUGA [Fam2.1 aminoacylation ribozyme variant] | 14.8 |
| AUGACCCUGGUCGUCGAGUGA [Fam2.1 aminoacylation ribozyme variant] | 4.65 |
| CUGGUUCAAACAAUCGGUCUG [Fam1A.1 aminoacylation ribozyme variant] | 14 |
| CUACUUCAGACAAUGGGUCUG [Fam1A.1 aminoacylation ribozyme variant] | 0.994 |
| CUACUUCAAAUAAUCGGUUUG [Fam1A.1 aminoacylation ribozyme variant] | 16 |
| AUUACCGUGGUCAUCUAGUGA [Fam2.1 aminoacylation ribozyme variant] | 31.2 |
| AGUACCCUGGUCAUCGAGUAA [Fam2.1 aminoacylation ribozyme variant] | 3.84 |
| CCACAAUUCAAGCAAGCGGUC [Fam1B.1 aminoacylation ribozyme variant] | 0.932 |

Note down self-aminoacylation recorded for ACUACCCUUGUCAUCGAGUGA [Fam2.1 aminoacylation ribozyme variant]
28.7

Tell me self-aminoacylation reported for AAGUUUGCUAAUAGUAGCACG [Fam3.1 aminoacylation ribozyme variant]
1.39

Item CUACUUAAAACAAUCGUUCUG [Fam1A.1 aminoacylation ribozyme variant] : provide self-aminoacylation
0.579

Identify measured self-aminoacylation associated with AUUACCCUGUACAUCGAGUGA [Fam2.1 aminoacylation ribozyme variant]
71.1

Return value of self-aminoacylation for input CCACAUUGCAAGCAAUCGGUC [Fam1B.1 aminoacylation ribozyme variant] , no commentary.
1.99

Read off the recorded self-aminoacylation for CCACACCUUAAGCAAUCGGUC [Fam1B.1 aminoacylation ribozyme variant]
0.93
